system: tet operator sequence; assay: β-galactosidase activity of a tetracycline-regulated promoter in transformed E. coli with revTetR, in the presence and absence of anhydrotetracycline (atc); assay type: cell-based, Escherichia coli; settings: RevTetR isolate cultured in the absence of anhydrotetracycline (ATC)
readout_type: β-Galactosidase Activity, Cultured Without ATC
Would you mind answering with just the numeric figure?

Task: Query (molecule): TetRrevAF2/15: revTetR(BD) V20G I22N R49Q A50T (protein, Modified tetracycline repressor, revTetR(BD) V20G I22N R49Q A50T) MSRLDKSKVINSALELLNEGGNEGLTTRKLAQKLGVEQPTLYWHVKNKQTLLDALAVEILARHHDYSLPAAGESWQSFLRNNAMSFRRALLRYRDGAKVHLGTRPDEKQYDTVETQLRFMTENGFSLRDGLYAISAVSHFTLGAVLEQQEHTAALTDRPAAPDENLPPLLREALQIMDSDDGEQAFLHGLESLIRGFEVQLTALLQIV ; field requested: β-Galactosidase Activity, Cultured Without ATC
Result: 82.5755

Task: Same question for TetRrevAF2/14: revTetR(BD) L14L E15A L16L L17V N18N; V20V G96V (protein, Modified tetracycline repressor, revTetR(BD) L14L E15A L16L L17V N18N; V20V G96V) MSRLDKSKVINSALALVNEVGIEGLTTRKLAQKLGVEQPTLYWHVKNKRALLDALAVEILARHHDYSLPAAGESWQSFLRNNAMSFRRALLRYRDVAKVHLGTRPDEKQYDTVETQLRFMTENGFSLRDGLYAISAVSHFTLGAVLEQQEHTAALTDRPAAPDENLPPLLREALQIMDSDDGEQAFLHGLESLIRGFEVQLTALLQIV please.
Result: 90.5688

Task: Same question for TetRrevAD3/5: revTetR(BD) L17L N18K E19V I22T 53Y A54S (protein, Modified tetracycline repressor, revTetR(BD) L17L N18K E19V I22T 53Y A54S) MSRLDKSKVINSALELLKVVGTEGLTTRKLAQKLGVEQPTLYWHVKNKRALLYSLAVEILARHHDYSLPAAGESWQSFLRNNAMSFRRALLRYRDGAKVHLGTRPDEKQYDTVETQLRFMTENGFSLRDGLYAISAVSHFTLGAVLEQQEHTAALTDRPAAPDENLPPLLREALQIMDSDDGEQAFLHGLESLIRGFEVQLTALLQIV please.
Result: 89.8129

Task: Same question for TetRrevAD2/6: revTetR(BD) N18Y G21E E23K (protein, Modified tetracycline repressor, revTetR(BD) N18Y G21E E23K) MSRLDKSKVINSALELLYEVEIKGLTTRKLAQKLGVEQPTLYWHVKNKRALLDALAVEILARHHDYSLPAAGESWQSFLRNNAMSFRRALLRYRDGAKVHLGTRPDEKQYDTVETQLRFMTENGFSLRDGLYAISAVSHFTLGAVLEQQEHTAALTDRPAAPDENLPPLLREALQIMDSDDGEQAFLHGLESLIRGFEVQLTALLQIV please.
Result: 89.5374

Task: Same question for TetRrevAD3/8: revTetR(BD) L16L A56A V57E E58L I59N L60A (protein, Modified tetracycline repressor, revTetR(BD) L16L A56A V57E E58L I59N L60A) MSRLDKSKVINSALELLNEVGIEGLTTRKLAQKLGVEQPTLYWHVKNKRALLDALAELNVARHHDYSLPAAGESWQSFLRNNAMSFRRALLRYRDGAKVHLGTRPDEKQYDTVETQLRFMTENGFSLRDGLYAISAVSHFTLGAVLEQQEHTAALTDRPAAPDENLPPLLREALQIMDSDDGEQAFLHGLESLIRGFEVQLTALLQIV please.
Result: 65.0174
